Entries and their pKi
Target: UniProtKB Q9Y3Z3
Sequence (Q9Y3Z3 114-626): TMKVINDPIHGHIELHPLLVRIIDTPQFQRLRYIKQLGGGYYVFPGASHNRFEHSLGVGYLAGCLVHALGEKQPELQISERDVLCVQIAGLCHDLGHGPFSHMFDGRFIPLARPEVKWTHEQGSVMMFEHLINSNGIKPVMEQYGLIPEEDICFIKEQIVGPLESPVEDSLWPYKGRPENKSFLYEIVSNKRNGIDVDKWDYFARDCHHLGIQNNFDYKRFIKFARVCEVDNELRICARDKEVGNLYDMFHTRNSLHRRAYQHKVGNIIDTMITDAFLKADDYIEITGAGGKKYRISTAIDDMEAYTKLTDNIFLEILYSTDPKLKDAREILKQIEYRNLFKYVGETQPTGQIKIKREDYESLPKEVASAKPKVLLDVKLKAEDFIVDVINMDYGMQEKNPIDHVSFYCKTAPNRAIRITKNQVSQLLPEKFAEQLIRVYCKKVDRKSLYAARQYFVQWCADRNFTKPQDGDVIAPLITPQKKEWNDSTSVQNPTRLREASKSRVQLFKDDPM
pKi: −log10 of the molar value.
MEASUREMENT KIND: pKi

query_smiles=Nc1ccn([C@H]2C[C@H](O)[C@@H](COP(=O)(O)NP(=O)(O)OP(=O)(O)O)O2)c(=O)n1 measurement_kind=pKi quantitative_result=7.17
query_smiles=Nc1nc2c(ncn2[C@H]2C[C@H](O)[C@@H](COP(=O)(O)NP(=O)(O)OP(=O)(O)O)O2)c(=O)[nH]1 measurement_kind=pKi quantitative_result=7.60
